I'd appreciate it if you could supply percent inhibition of human Factor XI mRNA values for the items below.
# System: human Factor XI mRNA
# test protocol: Dose-dependent inhibition in cyno primary hepatocytes, electroporation (Example 6)
# Type: cell-based, cynomolgus monkey
# condition summary: 60 nM, approx. 16 h
Please make sure the unit comes right after the number.

Please report the measured percent inhibition of human Factor XI mRNA for 417003 (antisense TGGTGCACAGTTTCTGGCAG; 2-13-5 gapmer, wing sugar chemistry not given here, further chemistry not given here) [compound 417003]
58%

Please report the measured percent inhibition of human Factor XI mRNA for 417002 (antisense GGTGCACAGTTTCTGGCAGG; 2-13-5 gapmer, wing sugar chemistry not given here, further chemistry not given here) [compound 417002]
55%

Please report the measured percent inhibition of human Factor XI mRNA for 416825 (antisense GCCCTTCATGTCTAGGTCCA; 5-10-5 gapmer, wing sugar chemistry not given here, further chemistry not given here) [compound 416825]
77%

Please report the measured percent inhibition of human Factor XI mRNA for 416826 (antisense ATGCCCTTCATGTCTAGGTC; 5-10-5 gapmer, wing sugar chemistry not given here, further chemistry not given here) [compound 416826]
69%

Please report the measured percent inhibition of human Factor XI mRNA for 416858 (antisense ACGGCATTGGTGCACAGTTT; 5-10-5 gapmer, wing sugar chemistry not given here, further chemistry not given here) [compound 416858]
63%
